test system: murine hepatitis virus (MHV); test: microbe, parasite or virus in culture; assay type: cell-based; conditions: Murine coronavirus; DBT cells, FIG. 5; read-out: IC50 against MHV
assay-readout: pIC50
Answers are plain numbers, as −log10 of the molar value.

Q) Request: pIC50, test system murine hepatitis virus (MHV), entry COc1cc2c(Nc3ccc(Br)cc3F)ncnc2cc1OCC1CCN(C)CC1
A) 5.80

====

system: murine hepatitis virus (MHV); test: microbe, parasite or virus in culture; assay type: cell-based; settings: Murine coronavirus; 10 μM, DBT cells
assay-readout: inhibition at 10 µM (%)
Answers are plain numbers, in %.

Consider the reported inhibition at 10 µM for these compounds:
In [3]: df
Out[3]:
                            chemical_string                 target_entity  number
0  C#Cc1cccc(Nc2ncnc3cc(OCCOC)c(OCCOC)cc23)c1  murine hepatitis virus (MHV)      32
1  CCCS(=O)(=O)Nc1ccc(F)c(C(=O)c2c[nH]c3ncc(-c4ccc(Cl)cc4)cc23)c1F  murine hepatitis virus (MHV)      -3
2  COc1cc2c(Nc3ccc(Br)cc3F)ncnc2cc1OCC1CCN(C)CC1  murine hepatitis virus (MHV)      97

Then there is this compound:
Q) What does the record list as inhibition at 10 µM for C=CC(=O)N1CCC[C@@H](n2nc(-c3ccc(Oc4ccccc4)cc3)c3c(N)ncnc32)C1 ?
A) -69

====

test system: murine hepatitis virus (MHV); assay: microbe, parasite or virus in culture; assay type: cell-based; conditions: Murine coronavirus; 10 μM, DBT cells
What inhibition at 10 µM was measured for each of the following?
Give bare numbers, in %.

These solved cases illustrate the format of a correct answer.
In [3]: df
Out[3]:
                            chemical_string  number
0  Cc1ccc(NC(=O)c2ccc(CN3CCN(C)CC3)cc2)cc1Nc1nccc(-c2cccnc2)n1      81
1  CN(C)C(=O)c1cc2cnc(Nc3ccc(N4CCNCC4)cn3)nc2n1C1CCCC1      -4
2  CC(=O)Nc1cccc(-n2c(=O)n(C3CC3)c(=O)c3c(Nc4ccc(I)cc4F)n(C)c(=O)c(C)c32)c1     -40

Batch request: inhibition at 10 µM per item, same order as input.
1. Cc1ccc(Nc2nccc(N(C)c3ccc4c(C)n(C)nc4c3)n2)cc1S(N)(=O)=O
2. CNC(=O)c1cc(Oc2ccc(NC(=O)Nc3ccc(Cl)c(C(F)(F)F)c3)c(F)c2)ccn1
3. CN1CCN(c2ccc(C(=O)Nc3n[nH]c4ccc(Cc5cc(F)cc(F)c5)cc34)c(NC3CCOCC3)c2)CC1
4. Cc1ncc(NC(=O)c2ccc(CN3CCN(C)CC3)c(C(F)(F)F)c2)cc1Nc1nccc(-c2cccnc2)n1

A)
20
65
97
83

====

Assign inhibition at 10 µM to each entry below.
test system: murine hepatitis virus (MHV); test: microbe, parasite or virus in culture; type: cell-based; conditions: Murine coronavirus; 10 μM, DBT cells
One number for each entry, in %.

Some solved cases for reference:
>>> df
                                   compound        assay_readout  measurement_units  number
0  CC(=O)c1c(C)c2cnc(Nc3ccc(N4CCNCC4)cn3)nc2n(C2CCCC2)c1=O [Palbociclib]  inhibition at 10 µM                  %       5
1  CC(C)(C)c1nc(-c2cccc(NS(=O)(=O)c3c(F)cccc3F)c2F)c(-c2ccnc(N)n2)s1 [Dabrafenib]  inhibition at 10 µM                  %     -12
2  COc1cc2nccc(Oc3ccc(NC(=O)NC4CC4)c(Cl)c3)c2cc1C(N)=O [Lonvatinib]  inhibition at 10 µM                  %     -12
3  COc1cc(N2CCC(N3CCN(C)CC3)CC2)ccc1Nc1ncc(Cl)c(Nc2ccccc2P(C)(C)=O)n1 [Brigatinib]  inhibition at 10 µM                  %      39
4  CCc1cc2c(cc1N1CCC(N3CCOCC3)CC1)C(C)(C)c1[nH]c3cc(C#N)ccc3c1C2=O [Alectinib]  inhibition at 10 µM                  %      62

Give inhibition at 10 µM for all compounds that follow.
1. COC(=O)c1ccc2c(c1)NC(=O)/C2=C(\Nc1ccc(N(C)C(=O)CN2CCN(C)CC2)cc1)c1ccccc1 [Nintedanib]
2. C[C@@H]1CCN(C(=O)CC#N)C[C@@H]1N(C)c1ncnc2[nH]ccc12 [Tofacitinib]

A)
1. 95
2. -7

====

Record form. Attribute: CC50. Fill in for each entry.
test: Cytotoxicity in Caco-2 cells (CC50); type: cell-based; conditions: human
Number first, unit second.

                            chemical_string  assay_readout  result
0  COc1cc2c(Nc3ccc(Br)cc3F)ncnc2cc1OCC1CCN(C)CC1           CC50  4.1 µM

Q) Reported CC50 for CN1CCN(c2ccc(C(=O)Nc3n[nH]c4ccc(Cc5cc(F)cc(F)c5)cc34)c(NC3CCOCC3)c2)CC1 : what is it?
A) 3.6 µM

====

tested on: murine hepatitis virus (MHV); experiment: microbe, parasite or virus in culture; assay type: cell-based; conditions: Murine coronavirus; 10 μM, DBT cells
Label rule, in plain words: inhibition at 10 µM of 70% and up is class 1, under 70% is class 0.

molecule	assigned-class
CCN(CC)CCNC(=O)c1c(C)[nH]c(/C=C2\C(=O)Nc3ccc(F)cc32)c1C [Sunitinib]	class 1
COc1cc2nccc(Oc3ccc(NC(=O)Nc4cc(C)on4)c(Cl)c3)c2cc1OC [Tivozanib]	class 0
CO[C@H]1C[C@@H]2CC[C@@H](C)[C@@](O)(O2)C(=O)C(=O)N2CCCC[C@H]2C(=O)O[C@H]([C@H](C)C[C@@H]2CC[C@@H](OC(=O)C(C)(CO)CO)[C@H](OC)C2)CC(=O)[C@H](C)/C=C(\C)[C@@H](O)[C@@H](OC)C(=O)[C@H](C)C[C@H](C)/C=C/C=C/C=C/1C [Temsirolimus]	class 0
C=CC(=O)Nc1cc(Nc2nccc(-c3cn(C)c4ccccc34)n2)c(OC)cc1N(C)CCN(C)C [Osimertinib]	class 1
C[C@]1(O)C[C@@H](c2nc(-c3ccc4ccc(-c5ccccc5)nc4c3)c3c(N)nccn32)C1 [Linsitinib]	class 0

Q) Answer whether inhibition at 10 µM of Cc1cn(-c2cc(NC(=O)c3ccc(C)c(Nc4nccc(-c5cccnc5)n4)c3)cc(C(F)(F)F)c2)cn1 [Nilotinib] is greater than or equal to 70%.
A) class 0
